The origin of these recorded values is patent US12617769B2.

- TESTED ON: TRα (Homo sapiens)
- Construct: Then 5 μL of 4×TRα-LBD or TRP-LBD
- Sequence (P10827 163-410 isoform P10827-2 limits assumed, other chains not shown): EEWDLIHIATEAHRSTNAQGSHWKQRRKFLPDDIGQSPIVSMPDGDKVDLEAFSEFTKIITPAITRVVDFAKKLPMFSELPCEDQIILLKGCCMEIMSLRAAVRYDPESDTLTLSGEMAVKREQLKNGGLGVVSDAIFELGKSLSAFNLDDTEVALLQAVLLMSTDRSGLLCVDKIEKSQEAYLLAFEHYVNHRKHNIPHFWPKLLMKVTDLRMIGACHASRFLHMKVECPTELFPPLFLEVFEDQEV
- TEST METHOD NOTES: In vitro binding activity, LanthaScreen TR-FRET Thyroid Receptor alfa Coactivator Assay
- MEASUREMENT PARAMETERS: TRα-LBD
pEC50: −log10 of the molar value.
# pEC50 annotations

The following molecules have reported results that may help.
In [3]: df
Out[3]:
                         structure_notation  quantity_kind  result
0  N#Cc1nn(-c2cc(Cl)c(Oc3cc(Cl)c(=O)n(Cc4ccccc4)c3)c(Cl)c2)c(=O)[nH]c1=O          pEC50  < 4.48
1  N#Cc1nn(-c2cc(Cl)c(Oc3cnc(=O)n(Cc4ccc(F)cc4)c3)c(Cl)c2)c(=O)[nH]c1=O          pEC50  < 4.00

Then there is this molecule:
INPUT: Give the reported pEC50 for N#Cc1nn(-c2cc(Cl)c(Oc3ccc(=O)n(Cc4ccc(OC(F)(F)F)cc4)c3)c(Cl)c2)c(=O)[nH]c1=O (system: TRα (Homo sapiens)).
OUTPUT: < 4.00

###

- TESTED ON: TRα (Homo sapiens)
- Construct: Then 5 μL of 4×TRα-LBD or TRP-LBD
- TEST METHOD NOTES: In vitro binding activity, LanthaScreen TR-FRET Thyroid Receptor alfa Coactivator Assay
- MEASUREMENT PARAMETERS: TRα-LBD
QUANTITY KIND: EC50

The following compounds have reported results that may help.
>>> df
                                   compound  quantity_kind    result
0  CC(c1ccccc1)n1nc(Oc2c(Cl)cc(-n3nc(C#N)c(=O)[nH]c3=O)cc2Cl)ccc1=O (stereo not drawn)           EC50  > 100 µM
1  Cc1cc(Oc2c(Cl)cc(-n3nc(C#N)c(=O)[nH]c3=O)cc2Cl)cn(Cc2ccccc2)c1=O           EC50  > 100 µM

Then there is this compound:
INPUT: Entry N#Cc1nn(-c2cc(Cl)c(Oc3cnc(=O)n(Cc4ccccc4)c3)c(Cl)c2)c(=O)[nH]c1=O : reported EC50 = ?
OUTPUT: > 100 µM

###

# pEC50 annotations
- TESTED ON: TRβ (Homo sapiens)
- Construct: Then 5 μL of 4×TRα-LBD or TRP-LBD
- Sequence (P10828 217-461 limits assumed): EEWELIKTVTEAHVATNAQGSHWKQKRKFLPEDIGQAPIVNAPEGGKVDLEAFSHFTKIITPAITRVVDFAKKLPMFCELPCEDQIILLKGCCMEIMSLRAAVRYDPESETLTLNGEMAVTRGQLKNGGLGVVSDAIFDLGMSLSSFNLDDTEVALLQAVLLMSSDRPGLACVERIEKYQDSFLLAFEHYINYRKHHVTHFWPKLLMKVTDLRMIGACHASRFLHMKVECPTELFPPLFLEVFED
- TEST METHOD NOTES: In vitro binding activity, LanthaScreen TR-FRET Thyroid Receptor beta Coactivator Assay
- MEASUREMENT PARAMETERS: TRβ-LBD
Expect pEC50 as a plain number equal to -log10 of the molar concentration.

>>> print(df.to_string())
                         structure_notation  quantity_kind  quantitative_result
0  CC(C)n1cc(Oc2c(Cl)cc(-n3nc(C#N)c(=O)[nH]c3=O)cc2Cl)ccc1=O          pEC50                 6.30

Then there is this molecule:
INPUT: Entry CCOC(=O)c1nn(-c2cc(Cl)c(Oc3ccc(=O)n(Cc4ccccc4)c3)c(Cl)c2)c(=O)[nH]c1=O : reported pEC50 = ?
OUTPUT: 5.83
